tested on: EfPiwi piRISC loaded with L1MC piRNA (26 nt); experiment: pre-steady-state target cleavage rate (min^-1); auxiliary factor: 500 nM Ephydatia muelleri Gtsf1; guide: L1MC piRNA 5'p-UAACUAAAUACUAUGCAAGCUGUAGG; MIWI and MILI are mouse PIWI proteins and EfPiwi is from a freshwater sponge; tags in brackets are library labels; higher = faster piRNA-guided slicing of the target
test readout: pre-steady-state target cleavage rate
Answers are plain numbers.

Incoming: Name the recorded pre-steady-state target cleavage rate for `UCCUGCUACAGCAUGGAUAGUAUUUAGUUA` .
Outgoing: 0.00804

Incoming: Name the recorded pre-steady-state target cleavage rate for `UCCUGGUACAGCUAGCAUAGUAUUUAGUAA` .
Outgoing: 0.00365

Incoming: Name the recorded pre-steady-state target cleavage rate for `UCCUGCUAGAGCUUGCAUUGUAUUUAGUUA` .
Outgoing: 0.00751

Incoming: Name the recorded pre-steady-state target cleavage rate for `UCCUGGAUGUCGUUCGCAUAGUAUUUAGUUA` .
Outgoing: 0.00486

Incoming: Name the recorded pre-steady-state target cleavage rate for `UCCUCCUACAGCUUGCAUAGUAUUUUAGUUA` .
Outgoing: 0.0456

Each of the following entries comes with a recorded value; kindly state pre-steady-state target cleavage rate for each.
1. UCCUGGAUCAGCUGUGCAUAGUAUUUAGUUA
2. UCCUCCUACAGCUUGCAUAGUAAUUAGUUA
3. UCCUCCUACACCUUGGAUAGUAUUUAGUUA
4. UCCUGGAUGUGCUUGCAUAGUUUUUAGUUA
5. UCCUCCUACAGCUUGCAUAGUAUUUAUUA

Outgoing:
[0.0791, 0.0117, 0.00658, 0.00538, 0.00539]
